# target.entity: M3 muscarinic acetylcholine receptor (mAChR) (Homo sapiens, UniProt P20309)
# Construct: expressed in transfected cells; host or cells: CHO-K1
# Sequence (P20309 whole entry): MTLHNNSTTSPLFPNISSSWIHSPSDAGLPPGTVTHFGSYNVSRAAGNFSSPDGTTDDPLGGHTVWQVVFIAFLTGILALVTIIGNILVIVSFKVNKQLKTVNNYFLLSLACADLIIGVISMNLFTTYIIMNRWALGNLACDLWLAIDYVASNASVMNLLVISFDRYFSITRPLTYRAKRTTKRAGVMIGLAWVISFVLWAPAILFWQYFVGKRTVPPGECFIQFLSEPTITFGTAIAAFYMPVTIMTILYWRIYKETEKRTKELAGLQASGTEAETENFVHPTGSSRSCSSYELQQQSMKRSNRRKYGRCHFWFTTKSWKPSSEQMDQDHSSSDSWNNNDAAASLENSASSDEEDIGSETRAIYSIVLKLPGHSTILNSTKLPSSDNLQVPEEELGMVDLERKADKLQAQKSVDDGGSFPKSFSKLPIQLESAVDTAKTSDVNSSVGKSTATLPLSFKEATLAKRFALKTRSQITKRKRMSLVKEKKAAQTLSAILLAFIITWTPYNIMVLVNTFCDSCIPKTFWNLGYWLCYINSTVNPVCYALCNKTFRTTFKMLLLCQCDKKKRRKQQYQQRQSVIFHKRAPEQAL
# protocol.notes: FLIPR calcium assay (Fluo 8), M3-overexpressing CHO-K1 cells
# Format: cell-based
# condition.parameters: FLIPR calcium
pEC50: −log10 of the molar value.
parameter.measured: pEC50

Query string: Quickly give me recorded pEC50 for `CCOC(=O)N1CC2(CC[C@@H](N3CCN(c4cc(F)cnc4-c4ccc(CO)cc4)CC3)C2)C1`
Result string: < 5.00

Query string: Quickly give me recorded pEC50 for `CCOC(=O)N1CC2(CC[C@@H](N3CCN(c4cc(F)cnc4-c4cnc(N(C)C)nc4)CC3)C2)C1`
Result string: < 5.00

Query string: Quickly give me recorded pEC50 for `CCOC(=O)N1CC2(CC[C@@H](N3CCN(c4cc(F)cnc4-c4ccc5cnn(C)c5c4)CC3)C2)C1`
Result string: < 5.00

Query string: Quickly give me recorded pEC50 for `CCOC(=O)N1CC2(CC[C@@H](N3CCN(c4cc(F)cnc4NC4CCOCC4)CC3)C2)C1`
Result string: < 5.00

Query string: Quickly give me recorded pEC50 for `CCOC(=O)N1CC2(CC[C@@H](N3CCN(c4cc(F)cnc4-c4ccn(CC)n4)CC3)C2)C1`
Result string: < 5.00

Query string: Quickly give me recorded pEC50 for `CCOC(=O)N1CC2(CC[C@@H](N3CCN(c4cc(F)cnc4-c4csc(CO)c4)CC3)C2)C1`
Result string: < 5.00

Query string: Quickly give me recorded pEC50 for `CCOC(=O)N1CC2(CC[C@@H](N3CCN(c4cc(F)cnc4-c4ccc5nn(C)cc5c4)CC3)C2)C1`
Result string: < 5.00

Query string: Quickly give me recorded pEC50 for `CCOC(=O)N1CC2(CC[C@@H](N3CCN(c4cc(F)cnc4-c4ccccc4O)CC3)C2)C1`
Result string: < 5.00

Query string: Quickly give me recorded pEC50 for `CCOC(=O)N1CC2(CC[C@@H](N3CCN(c4cc(F)cnc4-c4ccc(C#N)nc4)CC3)C2)C1`
Result string: < 5.00
